For Xa (Homo sapiens, UniProt P00742), measured Ki is reported for the entries below.
Property Name: Ki

In [3]: df
Out[3]:
                                   compound  property_name  recorded_measurement
0  N=C(N)c1ccc(CNC(=O)[C@H](Cc2cccc(CN)c2)NC(=O)[C@@H](Cc2ccc(-c3ccccc3)cc2)NS(=O)(=O)Cc2ccccc2)cc1 [compound 14]             Ki              < 100 nM
1  N=C(N)c1ccc(CNC(=O)[C@H](CCc2cc[n+]([O-])cc2)NC(=O)[C@@H](CCCc2ccccc2)NS(=O)(=O)Cc2ccccc2)cc1 [compound 41]             Ki             < 1000 nM
2  N=C(N)c1ccc(CNC(=O)[C@H](Cc2cccc(CN)c2)NC(=O)[C@@H](CCCc2ccccc2)NS(=O)(=O)Cc2ccc(C(=O)O)cc2)cc1 [compound 2]             Ki              < 100 nM
3  N=C(N)c1ccc(CNC(=O)[C@H](Cc2cccc(CN)c2)NC(=O)[C@@H](Cc2cccc3ccccc23)NS(=O)(=O)Cc2ccc(C(=O)O)cc2)cc1 [compound 16]             Ki             < 1000 nM
4  N=C(N)c1ccc(CNC(=O)[C@H](CCc2ccccc2)NC(=O)[C@@H](CCCc2cccnc2)NS(=O)(=O)Cc2ccccc2)cc1 [compound 51]             Ki               < 10 nM
5  N=C(N)c1ccc(CNC(=O)[C@H](CCc2ccncc2)NC(=O)[C@@H](CCCc2ccccc2)NS(=O)(=O)Cc2ccccc2)cc1 [compound 39]             Ki              < 100 nM

---

Reported pKi values for the following compounds.
- Experimental Target: Thrombin (Homo sapiens)
- Test Protocol: Determination of inhibition constants for thrombin
- Type: biochemical
pKi: −log10 of the molar value.
Property Name: pKi

In [3]: df
Out[3]:
                                   compound  recorded_measurement
0  CC(C)(C)OC[C@@H](NS(=O)(=O)Cc1ccccc1)C(=O)N[C@@H](Cc1cccc(CN)c1)C(=O)NCc1ccc(C(=N)N)cc1 [compound 63]                > 6.00
1  N=C(N)c1ccc(CNC(=O)[C@H](CCc2ccccc2)NC(=O)[C@@H](CCCc2cc[n+]([O-])cc2)NS(=O)(=O)Cc2ccccc2)cc1 [compound 53]                > 7.00
2  N=C(N)c1ccc(CNC(=O)[C@H](CCc2ccncc2)NC(=O)[C@H](NS(=O)(=O)Cc2ccccc2)C2Cc3ccccc3C2)cc1 [compound 46]                > 7.00

---

- Experimental Target: plasmin (Homo sapiens, UniProt P00747)
- Sequence (P00747 581-810 limits assumed): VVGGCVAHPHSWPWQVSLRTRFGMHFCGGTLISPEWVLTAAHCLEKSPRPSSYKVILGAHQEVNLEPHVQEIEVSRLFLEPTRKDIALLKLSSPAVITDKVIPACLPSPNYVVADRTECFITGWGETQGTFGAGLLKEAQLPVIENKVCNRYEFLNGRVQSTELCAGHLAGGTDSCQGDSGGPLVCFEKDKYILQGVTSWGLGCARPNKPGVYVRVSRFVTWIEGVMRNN
- Sequence (P00747 97-580 partner limits assumed): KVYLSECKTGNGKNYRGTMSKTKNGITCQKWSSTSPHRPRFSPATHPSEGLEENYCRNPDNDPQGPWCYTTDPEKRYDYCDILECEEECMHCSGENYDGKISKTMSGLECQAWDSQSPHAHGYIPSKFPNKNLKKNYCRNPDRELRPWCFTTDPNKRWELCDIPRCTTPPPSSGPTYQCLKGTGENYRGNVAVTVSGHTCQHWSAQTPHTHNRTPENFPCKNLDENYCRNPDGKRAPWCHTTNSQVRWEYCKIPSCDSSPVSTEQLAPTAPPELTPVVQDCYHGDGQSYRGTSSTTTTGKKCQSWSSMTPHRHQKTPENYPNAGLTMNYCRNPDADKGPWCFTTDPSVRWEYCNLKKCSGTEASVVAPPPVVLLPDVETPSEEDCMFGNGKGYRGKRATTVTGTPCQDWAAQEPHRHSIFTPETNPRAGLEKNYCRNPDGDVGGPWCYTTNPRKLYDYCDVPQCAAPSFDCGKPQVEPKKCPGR
- Test Protocol: Determination of inhibition constants for plasmin
- Assay type: biochemical
- Set-up: purchased Calbiochem
- Test Conditions: 25° C., substrate Chromozym PL, pH 8.0; read-out: Plasmin [Ki]
Property Name: Ki

In [3]: df
Out[3]:
                                   molecule  property_name  recorded_measurement
0  COC(=O)c1cccc(CS(=O)(=O)N[C@H](COC(C)(C)C)C(=O)N[C@@H](Cc2cccc(CN)c2)C(=O)NCc2ccc(C(=N)N)cc2)c1 [compound 66]             Ki               < 10 nM
1  N=C(N)c1ccc(CNC(=O)[C@H](CCc2ccccc2)NC(=O)[C@@H](CCCc2cc[n+]([O-])cc2)NS(=O)(=O)Cc2cccc(C(=O)O)c2)cc1 [compound 54]             Ki               < 10 nM
2  Cc1ccc(CCC[C@@H](NS(=O)(=O)Cc2ccccc2)C(=O)N[C@@H](Cc2cccc(CN)c2)C(=O)NCc2ccc(C(=N)N)cc2)cc1 [compound 9]             Ki               < 10 nM
3  N=C(N)c1ccc(CNC(=O)[C@H](Cc2cccc(CN)c2)NC(=O)[C@@H](CO)NS(=O)(=O)Cc2ccc(C(=O)O)cc2)cc1 [compound 70]             Ki              < 100 nM
4  N=C(N)c1ccc(CNC(=O)[C@H](CCc2ccc(CN)cc2)NC(=O)[C@@H](CCCc2ccccc2)NS(=O)(=O)Cc2ccccc2)cc1 [compound 31]             Ki               < 10 nM
5  N=C(N)c1ccc(CNC(=O)[C@H](CCc2ccccc2)NC(=O)[C@@H](CCCc2ccncc2)NS(=O)(=O)Cc2ccccc2)cc1 [compound 49]             Ki               < 10 nM

---

Reported pKi values for the following molecules.
- Experimental Target: plasmin (Homo sapiens)
- Test Protocol: Determination of inhibition constants for plasmin
- Type: biochemical
- Set-up: purchased Calbiochem
- Test Conditions: 25° C., substrate Chromozym PL, pH 8.0; read-out: Plasmin [Ki]
- Description: The inhibitory effect for the individual enzymes was determined in analogy to a previously disclosed method (Stürzebecher et al., 1997). For zero order kinetics, the reaction was stopped after 20 min by adding 25 μl of acetic acid (50% v/v), and the absorption at 405 nm was determined using a Microplate Reader (Multiscan Ascent, from Thermo). In the case of pseudo-first order kinetics, the reaction rates in the equilibrium state were ascertained by recording the reaction kinetics. […]
pKi: −log10 of the molar value.
Property Name: pKi

>>> df
                                   molecule  recorded_measurement
0  N=C(N)c1ccc(CC[C@H](NC(=O)[C@@H](CO)NS(=O)(=O)Cc2ccccc2)C(=O)NCc2ccc(C(=N)N)cc2)cc1 [compound 78]                > 7.00
1  N=C(N)c1ccc(CNC(=O)[C@H](Cc2cccc(CN)c2)NC(=O)[C@H](NS(=O)(=O)Cc2ccccc2)C(c2ccccc2)c2ccccc2)cc1 [compound 22]                > 8.00
2  N=C(N)c1ccc(CNC(=O)[C@H](CCc2ccncc2)NC(=O)[C@H](NS(=O)(=O)Cc2ccccc2)C2Cc3ccccc3C2)cc1 [compound 46]                > 8.00

---

- Experimental Target: plasma kallikrein (Homo sapiens, UniProt P03952)
- Sequence (P03952 391-638 limits assumed): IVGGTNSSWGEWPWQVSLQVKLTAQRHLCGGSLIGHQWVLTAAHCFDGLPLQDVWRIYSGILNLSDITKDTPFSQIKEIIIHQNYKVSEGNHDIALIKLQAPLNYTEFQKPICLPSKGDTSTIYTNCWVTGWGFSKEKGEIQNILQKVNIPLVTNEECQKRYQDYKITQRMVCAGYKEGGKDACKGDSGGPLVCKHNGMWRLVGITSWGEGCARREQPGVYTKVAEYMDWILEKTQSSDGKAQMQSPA
- Sequence (P03952 20-390 partner limits assumed): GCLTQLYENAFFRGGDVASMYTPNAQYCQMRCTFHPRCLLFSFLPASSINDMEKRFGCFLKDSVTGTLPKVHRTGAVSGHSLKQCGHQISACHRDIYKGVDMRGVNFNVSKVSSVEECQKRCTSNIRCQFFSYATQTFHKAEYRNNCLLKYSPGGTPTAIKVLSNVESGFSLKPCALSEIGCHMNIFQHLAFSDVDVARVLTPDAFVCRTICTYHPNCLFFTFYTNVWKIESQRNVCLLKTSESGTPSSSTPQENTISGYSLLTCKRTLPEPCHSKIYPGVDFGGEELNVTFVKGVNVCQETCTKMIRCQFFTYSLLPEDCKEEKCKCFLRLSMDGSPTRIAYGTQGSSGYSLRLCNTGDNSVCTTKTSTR
- Test Protocol: Determination of inhibition constants for PK
- Type: biochemical
- Parameters: purchased Enzyme Research Lab. / Enzyme Research Laboratories
- Test Conditions: 25° C., substrate S2302, pH 8.0; read-out: PK [Ki]
pKi: −log10 of the molar value.
Reported pKi values for the following compounds.
Property Name: pKi

                      smiles_representation  property_name  recorded_measurement
0  CC(C)(C)OC[C@@H](NS(=O)(=O)Cc1ccccc1)C(=O)N[C@@H](CCc1cccc(CN)c1)C(=O)NCc1ccc(C(=N)N)cc1            pKi                > 7.00
1  CC(C)(C)OC[C@@H](NS(=O)(=O)Cc1ccccc1)C(=O)N[C@@H](Cc1cccc(CN)c1)C(=O)NCc1ccc(C(=N)N)cc1            pKi                > 8.00
2  N=C(N)c1ccc(CNC(=O)[C@H](Cc2cccc(CN)c2)NC(=O)[C@@H](Cc2cccc3ccccc23)NS(=O)(=O)Cc2ccccc2)cc1            pKi                > 8.00
3  N=C(N)c1ccc(CNC(=O)[C@H](CCc2ccccc2)NC(=O)[C@@H](CCc2ccc(O)cc2)NS(=O)(=O)Cc2ccccc2)cc1            pKi                > 8.00
4  Cc1ccc(CCC[C@@H](NS(=O)(=O)Cc2ccccc2)C(=O)N[C@@H](Cc2cccc(CN)c2)C(=O)NCc2ccc(C(=N)N)cc2)cc1            pKi                > 8.00
5  N=C(N)c1ccc(CNC(=O)[C@H](CCc2cc[n+]([O-])cc2)NC(=O)[C@@H](CCCc2ccccc2)NS(=O)(=O)Cc2cccc(C(=O)O)c2)cc1            pKi                > 8.00

---

Reported Ki values for the following compounds.
- Experimental Target: plasmin (Homo sapiens, UniProt P00747)
- Test Protocol: Determination of inhibition constants for plasmin
- Assay type: biochemical
- Design: purchased Calbiochem
- Test Conditions: 25° C., substrate Chromozym PL, pH 8.0; read-out: Plasmin [Ki]
Property Name: Ki

In [3]: df
Out[3]:
                      smiles_representation  recorded_measurement
0  N=C(N)c1ccc(CNC(=O)[C@H](Cc2cccc(CN)c2)NC(=O)[C@@H](CCCC2CCCCC2)NS(=O)(=O)Cc2ccccc2)cc1               < 10 nM
1  CC(C)(C)OC[C@@H](NS(=O)(=O)Cc1ccccc1)C(=O)N[C@@H](CCc1cccc(CN)c1)C(=O)NCc1ccc(C(=N)N)cc1              < 100 nM
2  N=C(N)c1ccc(CNC(=O)[C@H](Cc2ccc(CN)cc2)NC(=O)[C@@H](CCCc2ccccc2)NS(=O)(=O)Cc2ccc(C(=O)O)cc2)cc1               < 10 nM
3  CC(C)(C)OC(=O)NCCCC[C@@H](NS(=O)(=O)Cc1ccccc1)C(=O)N[C@@H](Cc1cccc(CN)c1)C(=O)NCc1ccc(C(=N)N)cc1               < 10 nM
4  CC(C)(C)OC[C@@H](NS(=O)(=O)Cc1ccccc1)C(=O)N[C@@H](CCc1ccc(C(=N)N)cc1)C(=O)NCc1ccc(C(=N)N)cc1               < 10 nM
5  N=C(N)c1ccc(CNC(=O)[C@H](CCc2cc[n+]([O-])cc2)NC(=O)[C@@H](CCCc2ccccc2)NS(=O)(=O)Cc2cccc(C(=O)O)c2)cc1              < 100 nM
